molecular target: T1, human SIRP-α v1 (human, UniProt P78324 31-149); test: SPR
T1 construct: also called Human v1; Human V1
T1 sequence (P78324 31-149 limits assumed): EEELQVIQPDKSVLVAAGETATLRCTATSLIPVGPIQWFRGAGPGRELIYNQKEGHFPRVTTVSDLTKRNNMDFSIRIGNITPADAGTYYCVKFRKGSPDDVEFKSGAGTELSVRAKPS
Note to self: use t only for Kd readings below 0.01 nM; a reading exactly at 0.01 nM still gets f.

Look over these answered cases.
• Hum1/AB27_HC_Mutall (antibody, V domains shown) VH: EVQLVESGGGVVQPGGSLRLSCAASGFRFSSYAMSWVRQAPGKGLEWVSGISSGGDTYYVDSVKGRFTISRDNSKNTLYLQMNSLRAEDTAVYYCARETWNHLFDYWGQGTLVTVSS VL: SYELTQPPSVSVSPGQTARITCSGGSYSSYYYAWYQQKPGQAPVTLIYSDDKRPSNIPERFSGSSSGTTVTLTISGVQAEDEADYYCGGYDQSSYTNPFGGGTKLTVL = t
• Hum8/AB25_HC_Mutall (antibody, V domains shown) VH: EVQLVESGGGVVQPGGSLRLSCAASGFTFSSNAMSWVRQAPGKGLEWVAGISSGSDTYYGDSVKGRFTISRDNSKNTLYLQMNSLTAEDTAVYYCARETWNHLFDYWGQGTLVTVSS VL: SYELTQPPSVSVSPGQTARITCSGGAYSSYYYAWYQQKPGQAPVLVIYSDSKRPSGIPERFSGSSSGTTVTLTISGVQAEDEADYYCGGYDQSSYTNPFGGGTKLTVL = f
• Hum1/AB25_HC_Mutall (antibody, V domains shown) VH: EVQLVESGGGVVQPGGSLRLSCAASGFTFSSNAMSWVRQAPGKGLEWVAGISSGSDTYYGDSVKGRFTISRDNSKNTLYLQMNSLTAEDTAVYYCARETWNHLFDYWGQGTLVTVSS VL: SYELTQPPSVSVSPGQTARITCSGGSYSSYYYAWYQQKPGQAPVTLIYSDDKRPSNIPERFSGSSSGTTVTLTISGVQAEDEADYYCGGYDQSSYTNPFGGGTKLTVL = t
• Hum8/AB21_HC_Mutall (antibody, V domains shown, also called Hum8/AB21mutall) VH: EVQLVESGGGVVQPGGSLRLSCAASGFTFSSNAMSWVRQAPGKGLEWVAGISAGGSDTYYPASVKGRFTISRDNSKNTLYLQMNSLRAEDTAVYYCARETWNHLFDYWGQGTLVTVSS VL: SYELTQPPSVSVSPGQTARITCSGGAYSSYYYAWYQQKPGQAPVLVIYSDSKRPSGIPERFSGSSSGTTVTLTISGVQAEDEADYYCGGYDQSSYTNPFGGGTKLTVL = f
• Hum9/AB25_HC_Mutall (antibody, V domains shown) VH: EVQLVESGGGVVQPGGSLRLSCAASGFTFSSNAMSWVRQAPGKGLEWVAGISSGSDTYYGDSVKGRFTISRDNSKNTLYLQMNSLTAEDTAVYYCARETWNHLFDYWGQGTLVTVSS VL: SYELTQPPSVSVSPGQTARITCSGGAYSSYYYAWYQQKPGQAPVLVIYSDDKRPSGIPERFSGSSSGTTVTLTISGVQAEDEADYYCGGYDQSSYTNPFGGGTKLTVL = f

Q) API: query returns whether the binder falls strictly under 0.01 nM in Kd. Query: Hum9/AB21_HC_Mutall (antibody, V domains shown, also called Hum9/AB21mutall) VH: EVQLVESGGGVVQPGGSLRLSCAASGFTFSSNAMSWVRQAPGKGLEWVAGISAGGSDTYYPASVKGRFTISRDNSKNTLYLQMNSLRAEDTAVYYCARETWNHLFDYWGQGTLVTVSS VL: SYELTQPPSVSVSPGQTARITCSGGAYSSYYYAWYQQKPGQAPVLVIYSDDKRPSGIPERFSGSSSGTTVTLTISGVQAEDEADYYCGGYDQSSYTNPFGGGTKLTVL
A) f

Q) API: query returns whether the binder falls strictly under 0.01 nM in Kd. Query: Hum1/AB21_HC_Mutall (antibody, V domains shown, also called Hum1/AB21mutall) VH: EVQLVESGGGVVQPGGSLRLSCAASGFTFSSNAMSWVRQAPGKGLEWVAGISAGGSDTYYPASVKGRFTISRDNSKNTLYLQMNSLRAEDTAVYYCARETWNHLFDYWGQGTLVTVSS VL: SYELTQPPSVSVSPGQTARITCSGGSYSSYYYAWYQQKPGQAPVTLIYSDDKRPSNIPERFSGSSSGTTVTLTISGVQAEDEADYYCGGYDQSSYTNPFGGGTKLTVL
A) t
